molecular target: recombinant human BACE1 (rhBACE1) (human, UniProt P56817 22-457, limits assumed); test: cell-based or functional assay
Sequence (P56817 22-457 limits assumed): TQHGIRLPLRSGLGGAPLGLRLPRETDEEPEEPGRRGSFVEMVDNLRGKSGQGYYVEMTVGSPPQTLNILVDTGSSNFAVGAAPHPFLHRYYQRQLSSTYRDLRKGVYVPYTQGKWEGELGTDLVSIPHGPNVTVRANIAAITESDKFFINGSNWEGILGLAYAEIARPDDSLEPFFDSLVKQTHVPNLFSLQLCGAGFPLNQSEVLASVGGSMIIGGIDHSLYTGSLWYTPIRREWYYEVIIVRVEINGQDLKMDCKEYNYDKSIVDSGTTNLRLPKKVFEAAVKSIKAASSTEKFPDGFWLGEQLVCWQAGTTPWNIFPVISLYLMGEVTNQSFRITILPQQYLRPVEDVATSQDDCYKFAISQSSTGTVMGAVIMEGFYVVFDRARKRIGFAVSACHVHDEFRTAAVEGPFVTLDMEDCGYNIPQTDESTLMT
testReadout: Caliper (MCE) BACE1 activity assay, EC50 (rate increased) (nM)
Unit nM implied. Number only.

// query Caliper (MCE) BACE1 activity assay, EC50 (rate increased) value for entry Ac-ALYPYFLPISAK-NH2 (also called Peptide 2 of Kornacker et al) [BMS2]
26400

// query Caliper (MCE) BACE1 activity assay, EC50 (rate increased) value for entry Ac-NLTTYPYFIPLP-NH2 (also called Peptide 1 of Kornacker et al) [BMS1]
227

// query Caliper (MCE) BACE1 activity assay, EC50 (rate increased) value for entry Ac-YPYFIPL-NH2 (also called Peptide 4 of Kornacker et al) [BMS4]
1760

// query Caliper (MCE) BACE1 activity assay, EC50 (rate increased) value for entry Ac-SGPYFIEYMSAV-NH2 (also called BACE10) [BACE010 (Ac-SGPYFIEYMSAV-NH2)]
2200
